Data origin, for the record: ChEMBL document CHEMBL4330141

Please go through the items and note down their MNTD50.
- System: HEK-293T
- protocol: Cytotoxicity against HEK293T cells after 48 hrs by MTT assay
- Type: cell-based
- condition-notes: human
Give just the number in µg/mL; leave the unit off.

Param item = COc1cc(Cn2cc(C3=C(Cl)c4ccc(-c5cccs5)nc4CC3)nn2)cc(OC)c1OC ; retrieve measured MNTD50.
74

Param item = ClC1=C(c2cn(Cc3ccccc3)nn2)CCc2nc(-c3cccs3)ccc21 ; retrieve measured MNTD50.
112

Param item = FC(F)(F)c1ccc(Cn2cc(C3=C(Cl)c4ccc(-c5cccs5)nc4CC3)nn2)cc1 ; retrieve measured MNTD50.
86

Param item = O=[N+]([O-])c1ccc(Cn2cc(C3=C(Cl)c4ccc(-c5cccs5)nc4CC3)nn2)cc1 ; retrieve measured MNTD50.
69

Param item = ClC1=C(c2cn(Cc3ccc(Br)cc3)nn2)CCc2nc(-c3cccs3)ccc21 ; retrieve measured MNTD50.
88

Param item = NNC(=O)c1ccncc1 ; retrieve measured MNTD50.
32

Param item = COc1cccc(Cn2cc(C3=C(Cl)c4ccc(-c5cccs5)nc4CC3)nn2)c1 ; retrieve measured MNTD50.
98
